- TGT: TRPC4 (Homo sapiens, UniProt Q9UBN4)
- Construct: expressed in transfected cells; host or cells: HEK-TREx (HekTrex-293), cell line ICLN-1694, tetracycline-induced
- Sequence (Q9UBN4 1-982 isoform Q9UBN4-5): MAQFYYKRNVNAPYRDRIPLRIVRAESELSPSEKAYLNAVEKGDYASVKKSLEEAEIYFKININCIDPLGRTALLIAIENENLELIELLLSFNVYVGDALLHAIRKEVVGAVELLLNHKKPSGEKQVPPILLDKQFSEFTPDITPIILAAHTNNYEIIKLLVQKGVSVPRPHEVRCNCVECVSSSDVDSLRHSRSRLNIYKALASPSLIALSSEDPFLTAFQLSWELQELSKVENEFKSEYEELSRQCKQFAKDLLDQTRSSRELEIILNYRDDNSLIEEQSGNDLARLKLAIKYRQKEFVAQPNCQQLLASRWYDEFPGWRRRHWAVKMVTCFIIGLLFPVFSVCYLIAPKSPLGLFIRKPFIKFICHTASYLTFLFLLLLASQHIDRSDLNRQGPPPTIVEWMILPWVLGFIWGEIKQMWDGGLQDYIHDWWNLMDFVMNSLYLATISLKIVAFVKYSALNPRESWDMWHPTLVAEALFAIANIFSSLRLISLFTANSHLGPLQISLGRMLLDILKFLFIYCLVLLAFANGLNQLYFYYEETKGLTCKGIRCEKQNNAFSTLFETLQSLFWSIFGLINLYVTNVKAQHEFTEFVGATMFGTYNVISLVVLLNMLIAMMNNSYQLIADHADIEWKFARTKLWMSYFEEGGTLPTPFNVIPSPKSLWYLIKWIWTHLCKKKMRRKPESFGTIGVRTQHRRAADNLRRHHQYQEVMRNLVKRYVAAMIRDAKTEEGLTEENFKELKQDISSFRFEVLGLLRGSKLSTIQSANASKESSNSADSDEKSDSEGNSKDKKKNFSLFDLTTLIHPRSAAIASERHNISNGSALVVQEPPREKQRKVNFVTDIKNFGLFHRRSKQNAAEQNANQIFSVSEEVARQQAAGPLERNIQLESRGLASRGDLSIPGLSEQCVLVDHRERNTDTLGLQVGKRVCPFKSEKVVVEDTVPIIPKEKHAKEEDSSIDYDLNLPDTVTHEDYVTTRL
- ASSAY_PROTOCOL: TRPC4 FLIPR Assay (HEK-TREx hTRPC4, Englerin A stimulation)
- Type: cell-based
MEASURE_NAME: IC50

Req: Answer with the recorded IC50 of O=C1CN(c2cn[nH]c(=O)c2Cl)CCN1Cc1cc(F)ccc1C(F)(F)F only.
Resp: 0.01 to 1000 nM

----------
- TGT: TRPC5 (Homo sapiens)
- Construct: expressed in transfected cells; host or cells: HEK 293
- Sequence (Q9UL62 whole entry): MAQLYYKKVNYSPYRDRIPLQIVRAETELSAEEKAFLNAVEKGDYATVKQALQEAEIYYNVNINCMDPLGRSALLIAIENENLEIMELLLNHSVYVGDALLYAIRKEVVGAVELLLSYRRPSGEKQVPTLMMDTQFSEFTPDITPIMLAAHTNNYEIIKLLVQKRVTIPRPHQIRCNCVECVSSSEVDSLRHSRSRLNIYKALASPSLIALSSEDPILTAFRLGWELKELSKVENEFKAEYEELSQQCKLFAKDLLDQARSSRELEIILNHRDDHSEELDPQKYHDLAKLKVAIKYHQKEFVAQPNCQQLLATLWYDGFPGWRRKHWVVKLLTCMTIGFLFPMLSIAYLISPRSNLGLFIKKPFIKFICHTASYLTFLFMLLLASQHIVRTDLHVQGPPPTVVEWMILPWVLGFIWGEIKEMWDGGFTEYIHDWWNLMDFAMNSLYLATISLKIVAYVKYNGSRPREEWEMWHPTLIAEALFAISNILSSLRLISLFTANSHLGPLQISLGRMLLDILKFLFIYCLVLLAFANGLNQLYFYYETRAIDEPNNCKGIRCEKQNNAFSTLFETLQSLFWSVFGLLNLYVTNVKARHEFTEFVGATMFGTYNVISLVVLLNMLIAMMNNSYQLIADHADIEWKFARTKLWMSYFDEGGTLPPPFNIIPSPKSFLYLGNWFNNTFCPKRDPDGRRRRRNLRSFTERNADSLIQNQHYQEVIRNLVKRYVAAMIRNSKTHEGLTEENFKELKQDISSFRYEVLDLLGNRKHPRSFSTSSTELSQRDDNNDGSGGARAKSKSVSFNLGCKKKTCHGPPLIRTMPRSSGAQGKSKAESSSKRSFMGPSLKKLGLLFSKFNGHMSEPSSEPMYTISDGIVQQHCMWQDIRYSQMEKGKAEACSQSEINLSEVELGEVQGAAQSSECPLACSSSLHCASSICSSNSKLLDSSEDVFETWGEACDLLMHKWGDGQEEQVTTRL
- ASSAY_PROTOCOL: TRPC5 automated patch clamp assay (Qpatch), current block after rosiglitazone stimulation
- Type: cell-based
- PROTOCOL_CONDITIONS: Table 4; HEK293 cells overexpressing TRPC5; rosiglitazone stimulation; 80 mV; read-out: TRPC5_QP_ XC50_80
pIC50: −log10 of the molar value.
MEASURE_NAME: pIC50

Req: Answer with the recorded pIC50 of Cc1cc(F)ccc1CN1CCN(c2n[nH]c(=O)cc2C)CC1 only.
Resp: 3.30 to 5.00

Req: Answer with the recorded pIC50 of Cc1cccnc1CN1CCN(c2cn[nH]c(=O)c2Cl)CC1 only.
Resp: 5.00 to 5.30

Req: Answer with the recorded pIC50 of O=c1[nH]ncc(N2CCN(Cc3cccc4ccccc34)CC2)c1Cl only.
Resp: 5.30 to 6.00

Req: Answer with the recorded pIC50 of Cc1ccccc1CN1CCN(c2cn[nH]c(=O)c2C(C)C)CC1=O only.
Resp: 5.30 to 6.00

Req: Answer with the recorded pIC50 of O=c1[nH]ncc(Cl)c1N1CCN(Cc2ccccc2C(F)(F)F)CC1 only.
Resp: 5.00 to 5.30

Req: Answer with the recorded pIC50 of O=c1[nH]ncc(N2CCN(C3(c4ccccc4)CC3)CC2)c1Cl only.
Resp: 5.00 to 5.30

Req: Answer with the recorded pIC50 of O=C1CN(c2cn[nH]c(=O)c2Cl)CCN1Cc1cccc(Oc2ccccc2)c1 only.
Resp: 5.30 to 6.00

Req: Answer with the recorded pIC50 of Cc1ccccc1CN1CCN(c2cn[nH]c(=O)c2Oc2ccccc2)CC1=O only.
Resp: 3.30 to 5.00

Req: Answer with the recorded pIC50 of Cc1cc(F)ccc1CN1CCN(c2c(Cl)c(C)n[nH]c2=O)CC1=O only.
Resp: 3.30 to 5.00

Req: Answer with the recorded pIC50 of Cc1ncccc1CN1CCN(c2cn[nH]c(=O)c2Cl)CC1 [drawing 719] only.
Resp: 6.00 to 11.00

Req: Answer with the recorded pIC50 of Cc1cc(F)ccc1CN1CCN(c2cc(C)c(=O)[nH]n2)CC1 only.
Resp: 5.00 to 5.30

Req: Answer with the recorded pIC50 of O=C1CN(c2cn[nH]c(=O)c2Cl)CCN1Cc1cccc(-c2ccccc2)c1 only.
Resp: 3.30 to 5.00

Req: Answer with the recorded pIC50 of Cc1ccccc1CN1CCN(c2cn[nH]c(=O)c2CC(C)C)CC1=O only.
Resp: 3.30 to 5.00

Req: Answer with the recorded pIC50 of C=C(C)c1c(N2CCN(Cc3ccccc3C)C(=O)C2)cn[nH]c1=O only.
Resp: 3.30 to 5.00

Req: Answer with the recorded pIC50 of C=Cc1c(N2CCN(Cc3ccccc3C)C(=O)C2)cn[nH]c1=O only.
Resp: 5.30 to 6.00

Req: Answer with the recorded pIC50 of CCN(CC)C(=O)CN1CCN(c2cn[nH]c(=O)c2Cl)CC1=O only.
Resp: 3.30 to 5.00

Req: Answer with the recorded pIC50 of O=C1CN(c2cn[nH]c(=O)c2Cl)CCN1Cc1ccc(F)cc1OC(F)(F)F only.
Resp: 5.30 to 6.00

Req: Answer with the recorded pIC50 of O=c1[nH]ncc(N2CCOC(c3ccccc3)C2)c1Cl (stereo not shown) only.
Resp: 3.30 to 5.00

Req: Answer with the recorded pIC50 of Cc1cc(C(F)(F)F)ccc1CN1CCN(c2cn[nH]c(=O)c2Cl)CC1 only.
Resp: 3.30 to 5.00

Req: Answer with the recorded pIC50 of Cc1ccccc1CN1CCN(c2c(Cl)cn[nH]c2=O)CC1 only.
Resp: 5.00 to 5.30

Req: Answer with the recorded pIC50 of Cc1cc(F)ccc1CN1CCN(c2cc(=O)[nH][nH]c2=O)CC1 only.
Resp: 3.30 to 5.00

Req: Answer with the recorded pIC50 of C[C@@H]1CN(Cc2cccc3ccccc23)CCN1c1cn[nH]c(=O)c1Cl only.
Resp: 5.00 to 5.30
